Tested on: RARg:RXRa (NR concentration 270 nM, RXRa partner concentration 90 nM)
Experiment: PBM binding z-score (relative to random genomic background probes); higher = stronger binding; sequences stand for … in GC…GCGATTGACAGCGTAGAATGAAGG
recorded-endpoint: PBM binding z-score

* GCATATAGGTAATACAAGGTGGAAGTCCGATTGT | 0.279
* CGTCAAAGTTCAACTAAGGTAACGTACAGCACGC | 6.1
* AGAATGAGCTTAAGATCAGGGAAACAGAATACAT | -0.159
* CCGACTGGGGCAAAGGTTAACATACTCAGTACGA | 4.1
* AGAATGAGGTTATTGAGATCAGGGAATTGCGGTC | 1.43
* TAGCCTAGGTCATGTGGGCCAGTATAGTGTCGGC | 3.77

Next:
Prompt line: Provide PBM binding z-score value for the following sequence: `TCATATACGTAAAGGTGAAAGTCGAACGATATGA`
Response line: 1.65
